- ASSAY EXPLANATION: Dose linearity and effect of feeding, PK in cats (Example 10)
- Format: in vivo, cat
- SETTINGS: female, serum, po, 10 mg/kg, cats, Group 4, 10 mg/kg capsule, Fasted, Female, mean; read-out: Cmax
METRIC: Cmax (µg/mL)
Dear colleague, please return just the value in µg/mL, with no unit written.

QUERY: Which Cmax is listed for "CCc1nc2c(C)nc(C)cc2n1-c1ccc(CCNC(=O)NS(=O)(=O)c2ccc(C)cc2)cc1" ?
RESULT: 7.13

* * *

- ASSAY EXPLANATION: Dose linearity and effect of feeding, PK in cats (Example 10)
- Format: in vivo, cat
- SETTINGS: female, serum, po, 6 mg/kg, cats, Group 3, 6 mg/kg capsule, Fasted, Female, mean; read-out: AUC0-∞
METRIC: AUC(0-inf) (ng·h/mL)
Give the quantity in ng·h/mL, number only.

QUERY: Quick one: AUC(0-inf) for CCc1nc2c(C)nc(C)cc2n1-c1ccc(CCNC(=O)NS(=O)(=O)c2ccc(C)cc2)cc1 [grapiprant] ?
RESULT: 6350

* * *

- ASSAY EXPLANATION: Dose linearity and effect of feeding, PK in cats (Example 10)
- Format: in vivo, cat
- SETTINGS: male, serum, po, 2 mg/kg, cats, Group 1, 2 mg/kg capsule, Fed, Male, mean
METRIC: AUC(0-t) (ng·h/mL)
Write down the numeric answer in ng·h/mL and omit the unit.

QUERY: Please look up its AUC(0-t): "CCc1nc2c(C)nc(C)cc2n1-c1ccc(CCNC(=O)NS(=O)(=O)c2ccc(C)cc2)cc1"
RESULT: 1030

* * *

- ASSAY EXPLANATION: Dose linearity and effect of feeding, PK in cats (Example 10)
- Format: in vivo, cat
- SETTINGS: male, serum, po, 6 mg/kg, cats, Group 3, 6 mg/kg capsule, Fasted, Male, mean; read-out: Tmax
METRIC: Tmax (min)
State just the number; it will be interpreted in min.

QUERY: Could you share which Tmax value was measured for "CCc1nc2c(C)nc(C)cc2n1-c1ccc(CCNC(=O)NS(=O)(=O)c2ccc(C)cc2)cc1" ?
RESULT: 59.4

* * *

- ASSAY EXPLANATION: Dose linearity and effect of feeding, PK in cats (Example 10)
- Assay type: in vivo, cat
- SETTINGS: both sexes, serum, po, 2 mg/kg, Group 2 fasted cats, single oral 2 mg/kg capsule, males and females; read-out: mean Tmax
METRIC: Tmax (h)
Please reply with the bare figure in h and do not write the unit itself.

QUERY: Given "CCc1nc2c(C)nc(C)cc2n1-c1ccc(CCNC(=O)NS(=O)(=O)c2ccc(C)cc2)cc1" , state its recorded Tmax.
RESULT: 1.01

* * *

- ASSAY EXPLANATION: Dose linearity and effect of feeding, PK in cats (Example 10)
- Type: in vivo, cat
- SETTINGS: female, serum, po, 2 mg/kg, cats, Group 1, 2 mg/kg capsule, Fed, Female, mean
METRIC: AUC(0-t) (ng·h/mL)
Supply the numeric figure in ng·h/mL, leaving out any unit text.

QUERY: Look up AUC(0-t): "CCc1nc2c(C)nc(C)cc2n1-c1ccc(CCNC(=O)NS(=O)(=O)c2ccc(C)cc2)cc1"
RESULT: 990

* * *

- ASSAY EXPLANATION: Crossover PK of tablet vs methylcellulose suspension in beagle dogs (Example 15)
- Format: in vivo, beagle dog
- SETTINGS: both sexes, dog, serum, po; beagle dogs, Day 0, 60-mg methylcellulose suspension
METRIC: Tmax

QUERY: Look up Tmax for this compound: CCc1nc2c(C)nc(C)cc2n1-c1ccc(CCNC(=O)NS(=O)(=O)c2ccc(C)cc2)cc1 [grapiprant]
RESULT: 1 h

* * *

- ASSAY EXPLANATION: Dose linearity and effect of feeding, PK in cats (Example 10)
- Assay type: in vivo, cat
- SETTINGS: male, serum, po, 10 mg/kg, cats, Group 4, 10 mg/kg capsule, Fasted, Male, mean; read-out: Tmax
METRIC: Tmax (h)
Give the value in h but do not write h after it.

QUERY: Look at this compound and give its reported Tmax. "CCc1nc2c(C)nc(C)cc2n1-c1ccc(CCNC(=O)NS(=O)(=O)c2ccc(C)cc2)cc1"
RESULT: 1.33

* * *

- ASSAY EXPLANATION: Dose linearity and effect of feeding, PK in cats (Example 10)
- Format: in vivo, cat
- SETTINGS: both sexes, serum, po, 10 mg/kg, Group 4 fasted cats, single oral 10 mg/kg capsule, males and females; read-out: mean terminal half-life
METRIC: half-life

QUERY: half-life for "CCc1nc2c(C)nc(C)cc2n1-c1ccc(CCNC(=O)NS(=O)(=O)c2ccc(C)cc2)cc1" ?
RESULT: 4.03 to 4.19 h

* * *

- ASSAY EXPLANATION: Dose linearity and effect of feeding, PK in cats (Example 10)
- Assay type: in vivo, cat
- SETTINGS: both sexes, serum, po, 6 mg/kg, Group 3 fasted cats, single oral 6 mg/kg capsule, males and females; read-out: mean terminal half-life
- Protocol: Grapiprant was blended in a mixture of excipients as shown in Table 14 and administered orally by capsule to male and female cats. The day of dosing was defined as Day 0. Following dosing, the animals were evaluated for clinical signs. Blood samples were collected prior to dosing and at 0.25, 0.5, 1, 2, 4, 8, 12, and 24-hours postdose. The blood samples were processed to serum and analyzed for grapiprant concentration. There were no test article-related clinical signs. […]
METRIC: half-life

QUERY: Item under review: "CCc1nc2c(C)nc(C)cc2n1-c1ccc(CCNC(=O)NS(=O)(=O)c2ccc(C)cc2)cc1" . Reported half-life?
RESULT: 2.79 to 4.98 h

* * *

- ASSAY EXPLANATION: Dose linearity and effect of feeding, PK in cats (Example 10)
- Assay type: in vivo, cat
- SETTINGS: female, serum, po, 10 mg/kg, cats, Group 4, 10 mg/kg capsule, Fasted, Female, mean; read-out: Tmax
METRIC: Tmax (min)
Number only, in min; omit the unit.

QUERY: Find the recorded Tmax belonging to "CCc1nc2c(C)nc(C)cc2n1-c1ccc(CCNC(=O)NS(=O)(=O)c2ccc(C)cc2)cc1" and report it.
RESULT: 43.8

* * *

- ASSAY EXPLANATION: Dose linearity and effect of feeding, PK in cats (Example 10)
- Format: in vivo, cat
- SETTINGS: female, serum, po, 2 mg/kg, cats, Group 1, 2 mg/kg capsule, Fed, Female, mean; read-out: Tmax
METRIC: Tmax (h)
// return numeric value only (unit: h, not printed)

QUERY: # query: Tmax of entry CCc1nc2c(C)nc(C)cc2n1-c1ccc(CCNC(=O)NS(=O)(=O)c2ccc(C)cc2)cc1 [grapiprant]
RESULT: 1.33

* * *

- ASSAY EXPLANATION: Dose linearity and effect of feeding, PK in cats (Example 10)
- Type: in vivo, cat
- SETTINGS: both sexes, serum, po, 2 mg/kg, Group 1 fed cats, single oral 2 mg/kg capsule, males and females; read-out: mean terminal half-life
- Protocol: Grapiprant was blended in a mixture of excipients as shown in Table 14 and administered orally by capsule to male and female cats. The day of dosing was defined as Day 0. Following dosing, the animals were evaluated for clinical signs. Blood samples were collected prior to dosing and at 0.25, 0.5, 1, 2, 4, 8, 12, and 24-hours postdose. The blood samples were processed to serum and analyzed for grapiprant concentration. There were no test article-related clinical signs. […]
METRIC: half-life

QUERY: Find the recorded half-life belonging to "CCc1nc2c(C)nc(C)cc2n1-c1ccc(CCNC(=O)NS(=O)(=O)c2ccc(C)cc2)cc1" and report it.
RESULT: 2.4 to 3.12 h

* * *

- ASSAY EXPLANATION: Dose linearity and effect of feeding, PK in cats (Example 10)
- Assay type: in vivo, cat
- SETTINGS: male, serum, po, 2 mg/kg, cats, Group 1, 2 mg/kg capsule, Fed, Male, mean; read-out: AUC0-∞
METRIC: AUC(0-inf)
The number alone won't do; follow it with the unit.

QUERY: Which measured AUC(0-inf) value corresponds to "CCc1nc2c(C)nc(C)cc2n1-c1ccc(CCNC(=O)NS(=O)(=O)c2ccc(C)cc2)cc1" ?
RESULT: 1220 ng·h/mL

* * *

- ASSAY EXPLANATION: Crossover PK of tablet vs methylcellulose suspension in beagle dogs (Example 15)
- Format: in vivo, beagle dog
- SETTINGS: both sexes, beagle, dog, serum, po, 60 mg, beagle dogs, both sexes combined, Day 15, 60-mg suspension; read-out: average AUClast
METRIC: AUC(0-t) (ng·h/mL)
Form entry: value (ng·h/mL) — number only.

QUERY: Reported AUC(0-t) for "CCc1nc2c(C)nc(C)cc2n1-c1ccc(CCNC(=O)NS(=O)(=O)c2ccc(C)cc2)cc1" : what is it?
RESULT: 12500

Provenance of the data: patent US12109218B2
